Test system: varicella-zoster virus
experiment: Anti-viral activity against varicella-zoster virus, microplaque reduction method
Format: cell-based, varicella-zoster virus (HOSEN strain)
experimental_conditions: varicella-zoster virus; SI=CC50/ED50
property_label: SI (selectivity index, CC50/ED50)

Solved entries (count: 3):
>>> df
                                   molecule  recorded_result
0  Nc1nc(=S)n([C@@H]2O[C@H](CO)[C@@H](O)[C@@H]2O)cc1Br [2-thio-5-bromocytosine arabinoside]             > 13
1  Nc1nc(=S)n([C@@H]2O[C@H](CO)[C@@H](O)[C@@H]2O)cc1I [2-thio-5-iodocytosine arabinoside]            > 143
2  Nc1nc(=S)n([C@@H]2O[C@H](CO)[C@@H](O)[C@@H]2O)cc1F [2-thio-5-fluorocytosine arabinoside]             > 60

Q. Give its SI (selectivity index, CC50/ED50) value. Item: O=c1[nH]c(=S)n([C@@H]2O[C@H](CO)[C@@H](O)[C@@H]2O)cc1I [2-thio-5-iodouracil arabinoside]
A. 6.5

###

experiment: Cytotoxicity in virus-free MRC-5 cells (Example 1)
Type: cell-based
experimental_conditions: human; MRC-5 cells, virus-free; cultured as in varicella-zoster test (day 3); read-out: CC50 (50% cytotoxic concentration)
property_label: CC50 at 72 h (µg/mL)
I only need the number, in µg/mL, no unit after it.

Q. Give its CC50 at 72 h value. Item: O=c1[nH]c(=S)n([C@@H]2O[C@H](CO)[C@@H](O)[C@@H]2O)cc1I [2-thio-5-iodouracil arabinoside]
A. 20

###

experiment: Cytotoxicity in virus-free MRC-5 cells (Example 2)
Type: cell-based
experimental_conditions: human; MRC-5 cells, virus-free; cultured as in cytomegalovirus test (day 6); read-out: CC50 (50% cytotoxic concentration)
Description: The anti-viral activity against cytomegalovirus was also determined by the microplaque reduction method in the same manner as in Example 1. That is, MRC-5 cells were cultured in a 96-well microtiter plate until the cells reached the confluent state. Each of the compounds being tested was added to the wells to which a preparation of human cytomegalovirus (AD 169 strain) was subsequently added. […] The focus formation by cytomegalovirus was observed microscopically and the number of the foci was counted. […]
property_label: CC50 at 144 h

Q. Give its CC50 at 144 h value. Item: Nc1nc(=S)n([C@@H]2O[C@H](CO)[C@@H](O)[C@@H]2O)cc1F [2-thio-5-fluorocytosine arabinoside]
A. > 100 µg/mL

###

experiment: Cytotoxicity in virus-free MRC-5 cells (Example 1)
Type: cell-based
experimental_conditions: human, mrc-5 cells
property_label: CC50 at 72 h

>>> print(df.to_string())
                                   molecule  property_label  recorded_result
0  Nc1nc(=S)n([C@@H]2O[C@H](CO)[C@@H](O)[C@@H]2O)cc1Br [2-thio-5-bromocytosine arabinoside]    CC50 at 72 h      > 100 µg/mL

Q. Give its CC50 at 72 h value. Item: Nc1nc(=S)n([C@@H]2O[C@H](CO)[C@@H](O)[C@@H]2O)cc1I [2-thio-5-iodocytosine arabinoside]
A. > 100 µg/mL

Cited source: patent US6121248A
